Biological target: Serine/threonine-protein kinase B-raf (Homo sapiens, UniProt P15056, V600E)
Sequence (P15056 2-766 V600E limits assumed): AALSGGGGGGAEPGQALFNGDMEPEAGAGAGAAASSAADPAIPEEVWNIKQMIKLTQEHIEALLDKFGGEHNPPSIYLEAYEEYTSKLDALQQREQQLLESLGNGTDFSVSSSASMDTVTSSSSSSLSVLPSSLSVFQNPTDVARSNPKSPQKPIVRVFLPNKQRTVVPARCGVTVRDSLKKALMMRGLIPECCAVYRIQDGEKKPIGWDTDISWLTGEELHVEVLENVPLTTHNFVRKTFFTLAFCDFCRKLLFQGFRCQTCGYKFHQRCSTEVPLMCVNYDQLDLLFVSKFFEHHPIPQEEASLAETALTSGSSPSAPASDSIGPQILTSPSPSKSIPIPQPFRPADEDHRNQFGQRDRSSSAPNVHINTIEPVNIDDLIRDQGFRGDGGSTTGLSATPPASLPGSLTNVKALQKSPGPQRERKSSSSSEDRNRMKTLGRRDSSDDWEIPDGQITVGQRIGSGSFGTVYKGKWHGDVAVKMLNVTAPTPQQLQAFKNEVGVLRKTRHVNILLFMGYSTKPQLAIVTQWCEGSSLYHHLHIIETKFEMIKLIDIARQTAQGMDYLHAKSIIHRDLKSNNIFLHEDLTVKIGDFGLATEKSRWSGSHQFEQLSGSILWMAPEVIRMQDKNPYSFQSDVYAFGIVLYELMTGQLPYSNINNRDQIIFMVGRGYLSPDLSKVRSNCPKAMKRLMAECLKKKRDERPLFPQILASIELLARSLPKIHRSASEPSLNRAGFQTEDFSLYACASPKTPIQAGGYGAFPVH
Assay: Inhibition of human BRAF V600E mutant using MEK1 as substrate in presence of [33P]ATP by Hotspot assay
endpoint: IC50 (nM)
Number only, in nM; omit the unit.

Input line: Given the entry `COc1cc2cc(Oc3ccc(NC(=O)Nc4ccc(Cl)c(C(F)(F)F)c4)cc3)c(C)nc2cc1OC` , report its measured IC50.
Output line: 260

====

Tested on: SF-268
Experiment: Growth inhibition of human SF268 cells incubated for 48 hrs by sulforhodamine B assay
Assay type: functional
Conditions: SF-268, 48 h
endpoint: TGI (µM)
Enter your answer as a number in µM; do not include the unit.

Input line: Which measured TGI value corresponds to `CNC(=O)c1cc(Oc2ccc(NC(=O)Nc3ccc(Cl)c(C(F)(F)F)c3)cc2)ccn1` ?
Output line: 3.98

Input line: Entry `COc1cc2cc(Oc3ccc(NC(=O)Nc4ccc(Cl)c(C(F)(F)F)c4)cc3)c(C)nc2cc1OC` : reported TGI = ?
Output line: 6.34

Input line: Entry under review: `COc1cc2cc(Oc3ccc(NC(=O)Nc4cccc(C(F)(F)F)c4)cc3)c(C)nc2cc1OC` . Reported TGI?
Output line: 15.5

Input line: Given the compound `COc1cc2cc(Oc3ccc(NC(=O)Nc4cc(C(F)(F)F)cc(C(F)(F)F)c4)cc3)c(C)nc2cc1OC` , what is its reported TGI?
Output line: 3.68

====

Tested on: T47D
Assay: Growth inhibition of human T47D cells incubated for 48 hrs by sulforhodamine B assay
Type: functional
endpoint: GI50 (nM)
Report as a plain number; the unit nM is understood.

> print(dat)
                            chemical.string  unit.label  obs.value
1  Cc1nc2cc(O)c(O)cc2cc1Oc1ccc(NC(=O)Nc2ccc(Cl)c(Cl)c2)cc1          nM      11600
2  COc1cc2cc(Oc3ccc(NC(=O)Nc4ccc(Cl)c(C(F)(F)F)c4)cc3)c(C)nc2cc1OC          nM       1210

Input line: GET /values?readout=GI50&item= `COc1cc2cc(Oc3ccc(NC(=O)Nc4cccc(C(F)(F)F)c4)cc3)c(C)nc2cc1OC`
Output line: 1610

Input line: Could you tell me which GI50 is on file for `COc1cc2cc(Oc3ccc(NC(=O)Nc4cc(C(F)(F)F)cc(C(F)(F)F)c4)cc3)c(C)nc2cc1OC` ?
Output line: 1480

Input line: Which GI50 reading was recorded for the compound `COc1cc2cc(Oc3ccc(NC(=O)Nc4ccc(Cl)c(Cl)c4)cc3)c(C)nc2cc1OC` ?
Output line: 2700

====

Test system: RPMI-8226
Assay: Growth inhibition of human RPMI8226 cells incubated for 48 hrs by sulforhodamine B assay
Assay type: functional
Details: RPMI-8226, 48 h
// values below are reported GI50
Output spec: scalar in nM, unitless text.

Study these solved cases before continuing.
> print(dat)
                            chemical.string  obs.value
1  Cc1nc2cc(O)c(O)cc2cc1Oc1ccc(NC(=O)Nc2ccc(Cl)c(Cl)c2)cc1       7620
2  COc1cc2cc(Oc3ccc(NC(=O)Nc4ccc(Cl)c(Cl)c4)cc3)c(C)nc2cc1OC       1620

From here, focus on the item given below.
Input line: For the molecule shown here, `COc1cc2cc(Oc3ccc(NC(=O)Nc4cccc(C(F)(F)F)c4)cc3)c(C)nc2cc1OC` , give the reported GI50.
Output line: 1050

Value source: ChEMBL document CHEMBL3994622
